molecular target: cynomolgus Siglec-2/CD22 (Macaca fascicularis, UniProt A0A2K5WCZ6); experiment: biochemical; conditions: SPR, steady-state analysis; read-out: Affinity cyno CD22
Sequence (A0A2K5WCZ6 entry or part of it): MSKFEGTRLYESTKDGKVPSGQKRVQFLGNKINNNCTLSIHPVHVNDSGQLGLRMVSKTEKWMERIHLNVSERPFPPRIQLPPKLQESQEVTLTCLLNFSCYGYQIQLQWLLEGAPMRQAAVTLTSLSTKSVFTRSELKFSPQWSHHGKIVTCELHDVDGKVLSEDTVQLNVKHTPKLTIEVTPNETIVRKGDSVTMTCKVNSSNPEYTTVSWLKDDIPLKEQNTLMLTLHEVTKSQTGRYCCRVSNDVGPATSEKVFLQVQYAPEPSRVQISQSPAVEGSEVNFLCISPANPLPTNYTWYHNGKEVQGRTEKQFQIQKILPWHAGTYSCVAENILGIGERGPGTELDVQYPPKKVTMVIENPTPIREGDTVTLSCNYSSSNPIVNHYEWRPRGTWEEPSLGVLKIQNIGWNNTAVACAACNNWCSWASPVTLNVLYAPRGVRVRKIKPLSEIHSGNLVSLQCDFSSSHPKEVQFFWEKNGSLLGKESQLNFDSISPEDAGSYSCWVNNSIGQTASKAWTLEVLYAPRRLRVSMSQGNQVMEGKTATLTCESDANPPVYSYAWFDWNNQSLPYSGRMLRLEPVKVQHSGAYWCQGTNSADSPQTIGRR
Below, each entry is listed alongside its reported Kd.

Answered cases to consult:
C#CCOc1ccc(CO[C@]2(C(=O)O)C[C@H](O)[C@@H](NC(=O)CO)[C@H]([C@H](O)[C@H](O)CNC(=O)Cc3ccc(F)cc3)O2)cc1 [Compound 166] : 1000 to 10000 nM
O=C(Cc1ccc(Cl)cc1)NC[C@@H](O)[C@@H](O)[C@@H]1O[C@@](OCC2CCOCC2)(C(=O)O)C[C@H](O)[C@H]1NC(=O)CO [Compound 106] : < 1000 nM
C#CCCOc1ccc(CO[C@]2(C(=O)O)C[C@H](O)[C@@H](NC(=O)CO)[C@H]([C@H](O)[C@H](O)CNC(=O)Cc3ccccc3N3CCOCC3)O2)cc1 [Compound 138] : < 1000 nM
C#CCOCCOCCO[C@]1(C(=O)O)C[C@H](O)[C@@H](NC(=O)CO)[C@H]([C@H](O)[C@H](O)CNC(=O)Cc2ccc3c(c2)CC(=O)N3)O1 [Compound 11] : > 10000 nM
C#CCCOc1ccc(CO[C@]2(C(=O)O)C[C@H](O)[C@@H](NC(=O)CO)[C@H]([C@H](O)[C@H](O)CNC(=O)C3(c4ccc(C(F)(F)F)cc4)CCOCC3)O2)cc1 [Compound 170] : 1000 to 10000 nM
C#CCOCCCCCCO[C@]1(C(=O)O)C[C@H](O)[C@@H](Nc2c(N)c(=O)c2=O)[C@H]([C@H](O)[C@H](O)CNC(=O)Cc2ccc(Cl)cc2)O1 [Compound 190] : < 1000 nM
C#CCCOc1ccc(CO[C@]2(C(=O)O)C[C@H](O)[C@@H](NC(C)=O)[C@H]([C@H](O)[C@H](O)CNC(=O)c3cccc(Oc4ccccc4)c3)O2)cc1 [Compound 22] : 1000 to 10000 nM
C#CCOCCCCCCO[C@]1(C(=O)O)C[C@H](O)[C@@H](NC(=O)CN(C)C)[C@H]([C@H](O)[C@H](O)CNC(=O)Cc2ccc(Cl)cc2)O1 [Compound 25] : 1000 to 10000 nM

[in] What measured Kd is associated with CC(=O)NCCOCCOCCOCCOCCC(=O)NCCCCCCO[C@]1(C(=O)O)C[C@H](O)[C@@H](NC(=O)CO)[C@H]([C@H](O)[C@H](O)CNC(=O)Cc2ccc(-c3nnn[nH]3)cc2)O1 [Cpd. 235] on cynomolgus Siglec-2/CD22 (Macaca fascicularis, UniProt A0A2K5WCZ6)?
[out] < 1000 nM

[in] What do you get for C#CCCOc1ccc(CO[C@]2(C(=O)O)C[C@H](O)[C@@H](NC(=O)CO)[C@H]([C@H](O)[C@H](O)CNC(=O)Cc3ccc(Cl)c(O)c3)O2)cc1 [Compound 135] ?
[out] < 1000 nM

[in] What do you get for C#CCOCCOCCO[C@]1(C(=O)O)C[C@H](O)[C@@H](NC(=O)CO)[C@H]([C@H](O)[C@H](O)CNC(=O)Cc2ccc(O)cc2)O1 [Compound 153] ?
[out] 1000 to 10000 nM

[in] What do you get for C#CCOCCCCCCO[C@]1(C(=O)O)C[C@H](O)[C@@H](NC(C)=S)[C@H]([C@H](O)[C@H](O)CNC(=O)Cc2ccc(Cl)cc2)O1 [Compound 26] ?
[out] < 1000 nM

[in] What do you get for C#CCOCCOCCO[C@]1(C(=O)O)C[C@H](O)[C@@H](NC(=O)CO)[C@H]([C@H](O)[C@H](O)CNC(=O)C[C@H]2CC[C@H](O)CC2)O1 [Compound 14] ?
[out] > 10000 nM

[in] What do you get for C#CCOCCOCCO[C@]1(C(=O)O)C[C@H](O)[C@@H](NC(=O)CO)[C@H]([C@H](O)[C@H](O)CNC(=O)Cc2cccc(O)c2)O1 [Compound 152] ?
[out] 1000 to 10000 nM

[in] What do you get for O=C(O)CCCCCO[C@]1(C(=O)O)C[C@H](O)[C@@H](NC(=O)CO)[C@H]([C@H](O)[C@H](O)CNC(=O)Cc2ccc(Cl)cc2)O1 [Compound 121] ?
[out] < 1000 nM

[in] What do you get for CC(=O)NCCOCCOCCOCCOCCC(=O)NCCOCCOCCO[C@]1(C(=O)O)C[C@H](O)[C@@H](NC(C)=O)[C@H]([C@H](O)[C@H](O)CNC(=O)Cc2ccc(Cl)cc2)O1 [Compound 274] ?
[out] > 10000 nM
